The origin of these recorded values is ChEMBL document CHEMBL4028867.

# System: Mycobacterium tuberculosis
# methodDescription: Antitubercular activity against replicating stage Mycobacterium tuberculosis H37Rv ATCC 27294 after 7 days by Resazurin microtiter assay
# Assay type: functional
# experimentalParameters: H37Rv ATCC 27294, 168 h
Returns: string. Value is Condition met if measured MIC90 is below 10 µM, and Condition not met if it is greater than or equal to it.

Some entries whose results are on file:
• N#Cc1c(-c2ccc(F)cc2)[n+]([O-])c2ccc(C3OCCO3)cc2[n+]1[O-] = Condition not met
• Nc1ccccc1C(=O)N/N=C/c1ccc2no[n+]([O-])c2c1 = Condition not met
• N#Cc1c(-c2cccs2)[n+]([O-])c2ccc(C3OCCO3)cc2[n+]1[O-] = Condition not met

Input line: Strictly below 10 µM: is that where MIC90 of O=C(N/N=C/c1ccc2no[n+]([O-])c2c1)c1cccc(O)c1 sits?
Output line: Condition not met

Input line: Strictly below 10 µM: is that where MIC90 of N#Cc1c(-c2ccccc2)[n+]([O-])c2ccc(/C=N/NC(=O)c3ccncc3)cc2[n+]1[O-] sits?
Output line: Condition not met

Input line: Strictly below 10 µM: is that where MIC90 of N#Cc1c(-c2ccccc2)[n+]([O-])c2ccc(C3OCCO3)cc2[n+]1[O-] sits?
Output line: Condition not met

Input line: Strictly below 10 µM: is that where MIC90 of N#Cc1c(-c2ccco2)[n+]([O-])c2ccc(C3OCCO3)cc2[n+]1[O-] sits?
Output line: Condition met

Input line: Strictly below 10 µM: is that where MIC90 of O=C(N/N=C/c1ccc2no[n+]([O-])c2c1)c1ccc([N+](=O)[O-])cc1 sits?
Output line: Condition met

Input line: Strictly below 10 µM: is that where MIC90 of NC(=O)c1c(COc2ccccc2/C=N/NC(=O)c2ccncc2)no[n+]1[O-] sits?
Output line: Condition met
